Task for the reader: assign each of the following compounds its reported Cytotoxicity % viability.
Test system: MT2 cells
Assay: in vitro
Format: cell-based
Details: human, 1 µM

Q: Look at this compound and give its reported Cytotoxicity % viability. CC(C)(CC(=O)O[C@H]1CC[C@]2(C)[C@H]3CC[C@@H]4[C@H]5[C@H](C6(C)CC6)CC[C@]5(C(=O)N5CCC[C@@H]5c5nc(-c6ccccc6)no5)CC[C@@]4(C)[C@]3(C)CC[C@H]2C1(C)C)C(=O)O [Compound 5]
Ans: 100%

Q: Look at this compound and give its reported Cytotoxicity % viability. C=C(C)[C@@H]1CC[C@]2(C(=O)N3CCC[C@@H]3c3nc(-c4cccnc4)no3)CC[C@]3(C)[C@H](CC[C@@H]4[C@@]5(C)CC[C@H](OC(=O)CC(C)(C)C(=O)O)C(C)(C)[C@@H]5CC[C@]43C)[C@@H]12 [Compound 3]
Ans: 100%

Q: Look at this compound and give its reported Cytotoxicity % viability. C=C(C)[C@@H]1CC[C@]2(C(=O)N3CCC[C@H]3c3ncc(-c4cccnc4)[nH]3)CC[C@]3(C)[C@H](CC[C@@H]4[C@@]5(C)CC[C@H](OC(=O)CC(C)(C)CC(=O)O)C(C)(C)[C@@H]5CC[C@]43C)[C@@H]12 [Compound 11]
Ans: 84%

Q: Look at this compound and give its reported Cytotoxicity % viability. C=C(C)[C@@H]1CC[C@]2(C(=O)N3CCC[C@H]3c3ncc(-c4ccccc4)[nH]3)CC[C@]3(C)[C@H](CC[C@@H]4[C@@]5(C)CC[C@H](OC(=O)[C@H]6C[C@@H](C(=O)O)C6(C)C)C(C)(C)[C@@H]5CC[C@]43C)[C@@H]12 [Compound 14]
Ans: 86%

Q: Look at this compound and give its reported Cytotoxicity % viability. CC(C)(CC(=O)O)CC(=O)O[C@H]1CC[C@]2(C)[C@H]3CC[C@@H]4[C@H]5[C@H](C6(C)CC6)CC[C@]5(C(=O)N5CCC[C@H]5c5ncc(-c6ccccc6)[nH]5)CC[C@@]4(C)[C@]3(C)CC[C@H]2C1(C)C [Compound 13]
Ans: 72%

Q: Look at this compound and give its reported Cytotoxicity % viability. C=C(C)[C@@H]1CC[C@]2(C(=O)N3CCC[C@H]3c3ncc(-c4cccnc4)[nH]3)CC[C@]3(C)[C@H](CC[C@@H]4[C@@]5(C)CC[C@H](OC(=O)CC(C)(C)C(=O)O)C(C)(C)[C@@H]5CC[C@]43C)[C@@H]12 [Compound 10]
Ans: 81%

Q: Look at this compound and give its reported Cytotoxicity % viability. C=C(C)[C@@H]1CC[C@]2(C(=O)N3CCC[C@@H]3c3nc(-c4ccccc4)no3)CC[C@]3(C)[C@H](CC[C@@H]4[C@@]5(C)CC[C@H](OC(=O)CC(C)(C)CC(=O)O)C(C)(C)[C@@H]5CC[C@]43C)[C@@H]12 [Compound 2]
Ans: 92%

Q: Look at this compound and give its reported Cytotoxicity % viability. C=C(C)[C@@H]1CC[C@]2(C(=O)N3CCC[C@H]3c3ncc(-c4ccccc4)[nH]3)CC[C@]3(C)[C@H](CC[C@@H]4[C@@]5(C)CC[C@H](OC(=O)CC(C)(C)C(=O)O)C(C)(C)[C@@H]5CC[C@]43C)[C@@H]12 [Compound 8]
Ans: 88%

Q: Look at this compound and give its reported Cytotoxicity % viability. C=C(C)[C@@H]1CC[C@]2(C(=O)N3CCC[C@H]3c3ncc(-c4ccccc4)[nH]3)CC[C@]3(C)[C@H](CC[C@@H]4[C@@]5(C)CC[C@H](OC(=O)CC(C)(C)CC(=O)O)C(C)(C)[C@@H]5CC[C@]43C)[C@@H]12 [Compound 9]
Ans: 99%

Hello, the source for this data is patent US9637516B2, in case you need it.
